target: HLA-A*66:01; test: IEDB peptide-MHC binding, purified MHC/competitive/fluorescence; filed as Kd, often an IC50 or EC50 that approximates it; bounds were set here for any values at or beyond the usual limits of such assays; settings: source organism: Listeria monocytogenes J0161
Parameter measured: Kd

**Query** Kd for AALEGLSGF ?
**Result** ≥ 5 µM

----------
target: HLA-A*30:01; experiment: IEDB peptide-MHC binding, purified MHC/competitive/fluorescence; filed as Kd, often an IC50 or EC50 that approximates it; bounds were set here for any values at or beyond the usual limits of such assays; details: source organism: Human immunodeficiency virus 1
Parameter measured: Kd (µM)
Please respond with the number in µM and leave the unit unwritten.

**Query** Kd for VLYCVHQEI ?
**Result** 12.3

----------
target: HLA-A*01:01; assay: IEDB peptide-MHC binding, purified MHC/direct/fluorescence; filed as Kd, often an IC50 or EC50 that approximates it; bounds were set here for any values at or beyond the usual limits of such assays; conditions: source organism: Orthohantavirus andesense
Parameter measured: Kd (nM)
Please respond with the number in nM and leave the unit unwritten.

**Query** Kindly state the measured Kd obtained for ATATWFQYY with HLA-A*01:01.
**Result** 16.3

----------
molecular target: HLA-A*02:12; test: IEDB peptide-MHC binding, purified MHC/direct/fluorescence; filed as Kd, often an IC50 or EC50 that approximates it; bounds were set here for any values at or beyond the usual limits of such assays; conditions: source organism: Escherichia coli O157:H7 str. EC869
Parameter measured: Kd

**Query** Kd for SQFNHWFGE ?
**Result** ≥ 20 µM

----------
molecular target: HLA-A*30:02; assay: IEDB peptide-MHC binding, purified MHC/competitive/radioactivity; filed as Kd, often an IC50 or EC50 that approximates it; bounds were set here for any values at or beyond the usual limits of such assays; settings: source organism: Vaccinia virus WR
Parameter measured: Kd

**Query** Kd for KTSTLIFFV ?
**Result** 251 nM

----------
molecular target: HLA-C*12:03; experiment: IEDB peptide-MHC binding, purified MHC/direct/fluorescence; filed as Kd, often an IC50 or EC50 that approximates it; bounds were set here for any values at or beyond the usual limits of such assays; conditions: source organism: Callithrix jacchus
pKd: −log10 of the molar value.
Parameter measured: pKd

**Query** pKd for VAANIVLTV ?
**Result** ≥ 9.00

----------
target: HLA-A*31:01; experiment: IEDB peptide-MHC binding, purified MHC/direct/fluorescence; filed as Kd, often an IC50 or EC50 that approximates it; bounds were set here for any values at or beyond the usual limits of such assays; conditions: source organism: Vibrio vulnificus
pKd: −log10 of the molar value.
Parameter measured: pKd

**Query** pKd for QKDINTPGY ?
**Result** ≤ 4.70

----------
biological target: HLA-B*35:01; test: IEDB peptide-MHC binding, purified MHC/competitive/radioactivity; filed as Kd, often an IC50 or EC50 that approximates it; bounds were set here for any values at or beyond the usual limits of such assays; conditions: source organism: Dengue virus 1 Brazil/97-11/1997
Parameter measured: pKd
Value format note: pKd is -log10 of concentration (mol/L); just state the number.

**Query** pKd for FTVIALFLAH ?
**Result** 6.19

----------
target: HLA-B*15:17; assay: IEDB peptide-MHC binding, purified MHC/direct/fluorescence; filed as Kd, often an IC50 or EC50 that approximates it; bounds were set here for any values at or beyond the usual limits of such assays; conditions: source organism: Camelpox virus M-96
pKd: −log10 of the molar value.
Parameter measured: pKd

**Query** pKd for SHEQGDIAL ?
**Result** ≤ 4.70

----------
biological target: HLA-A*02:01; assay: IEDB peptide-MHC binding, purified MHC/competitive/radioactivity; filed as Kd, often an IC50 or EC50 that approximates it; bounds were set here for any values at or beyond the usual limits of such assays; conditions: source organism: Vaccinia virus WR
pKd: −log10 of the molar value.
Parameter measured: pKd

**Query** Kindly state the measured pKd obtained for SLTIKDSSNK with HLA-A*02:01.
**Result** ≤ 4.16

----------
target: HLA-A*31:01; assay: IEDB peptide-MHC binding, purified MHC/direct/fluorescence; filed as Kd, often an IC50 or EC50 that approximates it; bounds were set here for any values at or beyond the usual limits of such assays; settings: source organism: Cryptosporidium parvum
Quick reference for Kd among some sequences

entry_sequence=VPPTNSINK observed="≥ 20 µM"

Moving on to the next sequence.
**Query** Kd for ISCQIYNAL ?
**Result** ≥ 20 µM

----------
target: HLA-A*30:02; assay: IEDB peptide-MHC binding, purified MHC/competitive/radioactivity; filed as Kd, often an IC50 or EC50 that approximates it; bounds were set here for any values at or beyond the usual limits of such assays; settings: source organism: Mammarenavirus mopeiaense
Parameter measured: Kd

**Query** Kd for IKIPTHRHI ?
**Result** ≥ 76.9 µM

----------
target: HLA-A*02:01; assay: IEDB peptide-MHC binding, purified MHC/competitive/fluorescence; bounds were set here for any values at or beyond the usual limits of such assays; conditions: source organism: Vaccinia virus Copenhagen
Parameter measured: IC50 (µM)
Please respond with the number in µM and leave the unit unwritten.

Reference set, count: 3
entry_sequence=SISKSNAKC observed=35.8
entry_sequence=KLTDSLSSQ observed=44.6
entry_sequence=QLLEAVYGN observed=21.6

Moving on to the next sequence.
**Query** IC50 for RSDGYFLKI ?
**Result** 4.94

----------
target: HLA-A*11:01; experiment: IEDB peptide-MHC binding, purified MHC/competitive/radioactivity; filed as Kd, often an IC50 or EC50 that approximates it; bounds were set here for any values at or beyond the usual limits of such assays; details: source organism: Lassa virus Josiah
Parameter measured: Kd

**Query** Kd for DAHKKNLYDH ?
**Result** ≥ 69.7 µM

----------
biological target: HLA-B*53:01; assay: IEDB peptide-MHC binding, purified MHC/competitive/radioactivity; filed as Kd, often an IC50 or EC50 that approximates it; bounds were set here for any values at or beyond the usual limits of such assays; conditions: source organism: Hepacivirus hominis
pKd: −log10 of the molar value.
Parameter measured: pKd

**Query** pKd for HSKKKCDDL ?
**Result** ≤ 4.24

----------
molecular target: HLA-B*44:02; assay: IEDB peptide-MHC binding, purified MHC/direct/fluorescence; filed as Kd, often an IC50 or EC50 that approximates it; bounds were set here for any values at or beyond the usual limits of such assays; conditions: source organism: Cryptosporidium hominis
pKd: −log10 of the molar value.
Parameter measured: pKd

**Query** pKd for FMKSRVYSI ?
**Result** ≤ 4.70

----------
target: HLA-A*24:02; test: IEDB peptide-MHC binding, purified MHC/direct/fluorescence; filed as Kd, often an IC50 or EC50 that approximates it; bounds were set here for any values at or beyond the usual limits of such assays; settings: source organism: Entamoeba histolytica HM-1:IMSS
Parameter measured: Kd (nM)
Please respond with the number in nM and leave the unit unwritten.

**Query** Kd for IFPSMYFLM ?
**Result** 2

----------
molecular target: HLA-A*02:01; assay: IEDB peptide-MHC binding, purified MHC/direct/fluorescence; filed as Kd, often an IC50 or EC50 that approximates it; bounds were set here for any values at or beyond the usual limits of such assays; conditions: source organism: Salmonella enterica subsp. enterica serovar Typhimurium
Parameter measured: Kd (µM)
Please respond with the number in µM and leave the unit unwritten.

entry_sequence=ALSMADIFI system=HLA-A*02:01 observed=0.106

Moving on to the next sequence.
**Query** Kd for FAHELEMLC ?
**Result** 1.17

----------
target: HLA-B*27:03; assay: IEDB peptide-MHC binding, purified MHC/competitive/fluorescence; filed as Kd, often an IC50 or EC50 that approximates it; bounds were set here for any values at or beyond the usual limits of such assays; settings: source organism: Xanthobacter autotrophicus Py2
pKd: −log10 of the molar value.
Parameter measured: pKd

**Query** pKd for GQMYNMNTL ?
**Result** ≤ 4.70

----------
biological target: HLA-A*23:01; experiment: IEDB peptide-MHC binding, purified MHC/competitive/fluorescence; filed as Kd, often an IC50 or EC50 that approximates it; bounds were set here for any values at or beyond the usual limits of such assays; details: source organism: Entamoeba histolytica HM-1:IMSS
Parameter measured: Kd

**Query** Kd for NPAACSYMV ?
**Result** ≥ 20 µM

----------
Quick reference for pIC50 among some sequences
target: HLA-A*01:01; assay: IEDB peptide-MHC binding, purified MHC/competitive/fluorescence; bounds were set here for any values at or beyond the usual limits of such assays; settings: source organism: Sudan ebolavirus
pIC50: −log10 of the molar value.

Reference set, count: 3
entry_sequence=YTEGLMHNQ observed="≤ 3.87"
entry_sequence=YYATSYLEY observed="≤ 3.96"
entry_sequence=GTGPCPGDY observed=4.97

Moving on to the next sequence.
**Query** Kindly state the measured pIC50 obtained for TENTSSYYA with HLA-A*01:01.
**Result** ≤ 3.85
